target_or_system: hT2R54 (Homo sapiens)
Construct: expressed in transfected cells; it overexpresses a promiscuous G protein
assay_text: Cell-based assay for measuring hT2R54 inhibition (FLIPR calcium, Fluo4AM, acetaminophen as bitter agonist)
stated_conditions: Table 4; cells stably expressing hT2R54 and a promiscuous G protein; read-out: hT2R54 IC50
experimental_endpoint: IC50 (nM)

compound=CCOC(=O)[C@@H]1CCCN1CC(=O)Nc1cc2c(cc1C(C)=O)OCO2 target_or_system="hT2R54 (Homo sapiens)" meas_value=206
compound=CC(=O)c1cc2c(cc1NC(=O)C(C)(C)N1CCOCC1)OCO2 target_or_system="hT2R54 (Homo sapiens)" meas_value=207
compound=CCOC(=O)[C@H]1CCCCN1CC(=O)Nc1cc2c(cc1C(C)=O)OCO2 target_or_system="hT2R54 (Homo sapiens)" meas_value=135
compound="COC(=O)C1CN(CC(=O)Nc2cc3c(cc2C(C)=O)OCO3)CCC1=O (stereo not drawn)" target_or_system="hT2R54 (Homo sapiens)" meas_value=154

(I) CCOC(=O)CCN(CC)CC(=O)Nc1cc2c(cc1C(C)=O)OCO2
(II) COc1cc2c(cc1NC(=O)CN1CCC(OC)CC1)OCO2
(III) COC(=O)c1cc2c(cc1NC(=O)CN1CCOCC1)OCO2
Query :: Put the entries in order of IC50, starting with the largest number. Response field: labels, in requested order.
Result :: II, III, I

---

target_or_system: hT2R54 (Homo sapiens)
Construct: expressed in transfected cells; it overexpresses a promiscuous G protein
Sequence (P59534 1-338): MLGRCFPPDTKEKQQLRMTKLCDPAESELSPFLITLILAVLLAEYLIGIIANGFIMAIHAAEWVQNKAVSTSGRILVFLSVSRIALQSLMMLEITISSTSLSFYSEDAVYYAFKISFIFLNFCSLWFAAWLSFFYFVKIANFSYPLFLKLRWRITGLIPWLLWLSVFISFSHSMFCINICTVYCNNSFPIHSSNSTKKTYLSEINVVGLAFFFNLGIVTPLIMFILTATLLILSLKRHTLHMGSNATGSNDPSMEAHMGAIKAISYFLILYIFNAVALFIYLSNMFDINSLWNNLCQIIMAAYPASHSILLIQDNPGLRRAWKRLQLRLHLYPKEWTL
assay_text: Cell-based assay for measuring hT2R54 inhibition (FLIPR calcium, Fluo4AM, acetaminophen as bitter agonist)
stated_conditions: Table 2; cells stably expressing hT2R54 and a promiscuous G protein; read-out: hT2R54 IC50
experimental_endpoint: IC50 (µM)

compound=CC(=O)c1cc2c(cc1NC(=O)CN1CCN(C(=O)COC(C)C)CC1)OCO2 unit_annotation=µM meas_value=0.17
compound=COc1cc2c(cc1NC(=O)CN1CCN(C(=O)c3cc(C)c(C)o3)CC1)OCO2 unit_annotation=µM meas_value=0.1
compound=COc1cc2c(cc1NC(=O)CN1CCN(C(C)=O)CC1)OCO2 unit_annotation=µM meas_value=1.56

(P) CC(=O)c1cc2c(cc1NC(=O)CN1CCN(C(=O)CN3CCCC3)CC1)OCO2
(Q) COC(=O)c1cc2c(cc1NC(=O)CN1CCN(C(=O)c3cn(C)nn3)CC1)OCO2
(R) COC(=O)c1cc2c(cc1NC(=O)CN1CCN(C(=O)C3CCCO3)CC1)OCO2 (centres unmarked)
Query :: Let's sort these by IC50, smallest first. Go ahead? Returns: the labels arranged in the requested order.
Result :: Q, P, R

(A) CC(=O)c1cc2c(cc1NC(=O)CN1CCN(C(=O)c3ccc(F)cc3)CC1)OCO2
(B) COc1cc2c(cc1NC(=O)CN1CCN(C(=O)CN3CCOCC3)CC1)OCO2
Query :: Please tell me which of the two, A or B , has the higher reported IC50 value. Selection: enter the item's label.
Result :: B
(B: 2.64 µM, A: 0.028 µM)

---

target_or_system: hT2R54 (Homo sapiens)
Construct: expressed in transfected cells; it overexpresses a promiscuous G protein
assay_text: Cell-based assay for measuring hT2R54 inhibition (FLIPR calcium, Fluo4AM, acetaminophen as bitter agonist)
stated_conditions: Table 6; cells stably expressing hT2R54 and a promiscuous G protein; read-out: hT2R54 IC50
pIC50: −log10 of the molar value.
experimental_endpoint: pIC50

// known answers, use as guide
compound_structure_string=CC(=O)NC1CCN(CC(=O)Nc2cc3c(cc2C(C)=O)OCO3)CC1 experimental_endpoint=pIC50 meas_value=6.58
compound_structure_string=CC(=O)c1cc2c(cc1NC(=O)CNC1CCN(C(=O)CC(C)C)CC1)OCO2 experimental_endpoint=pIC50 meas_value=6.70
compound_structure_string=CC(=O)c1cc2c(cc1NC(=O)CN1CCC(NC(=O)c3ccccc3)CC1)OCO2 experimental_endpoint=pIC50 meas_value=7.22
compound_structure_string=CC(=O)c1cc2c(cc1NC(=O)CNC1CCN(C(=O)c3cccnc3)CC1)OCO2 experimental_endpoint=pIC50 meas_value=7.05
compound_structure_string=CC(=O)c1cc2c(cc1NC(=O)CN1CCC(N(C)C(=O)CC(C)C)CC1)OCO2 experimental_endpoint=pIC50 meas_value=6.23
compound_structure_string=CC(=O)c1cc2c(cc1NC(=O)CN1CCC(NC(=O)CC(C)C)CC1)OCO2 experimental_endpoint=pIC50 meas_value=6.85

(1) CC(=O)c1cc2c(cc1NC(=O)CN1CCC(NC(=O)c3ccco3)CC1)OCO2
(2) CC(=O)c1cc2c(cc1NC(=O)CN1CCC(NC(=O)c3cccnc3)CC1)OCO2
(3) CC(=O)c1cc2c(cc1NC(=O)CN1CCC(CNC(=O)CC(C)C)CC1)OCO2
(4) CC(=O)c1cc2c(cc1NC(=O)CNC1CCN(C(=O)c3ccco3)CC1)OCO2
(5) CCC(=O)NC1CCN(CC(=O)Nc2cc3c(cc2C(C)=O)OCO3)CC1
Query :: # rank_down: sort by pIC50, max first Put the labels in the requested order and list them out.
Result :: 4, 2, 3, 5, 1
(4: 7.22, 2: 6.96, 3: 6.73, 5: 6.51, 1: 6.16)

---

target_or_system: hT2R54 (Homo sapiens, UniProt P59534)
Construct: expressed in transfected cells; it overexpresses a promiscuous G protein
assay_text: Cell-based assay for measuring hT2R54 inhibition (FLIPR calcium, Fluo4AM, acetaminophen as bitter agonist)
stated_conditions: Table 2; cells stably expressing hT2R54 and a promiscuous G protein; read-out: hT2R54 IC50
experimental_endpoint: IC50 (nM)

Example results:
compound="CC(=O)c1cc2c(cc1NC(=O)CN1CCN(C(=O)c3conc3C)CC1)OCO2 [compound 298]" meas_value=91
compound="CC(=O)c1cc2c(cc1NC(=O)CN1CCN(C(=O)Cc3ccco3)CC1)OCO2 [compound 64]" meas_value=100

(1) COc1ccc(C(=O)N2CCN(CC(=O)Nc3cc4c(cc3C(C)=O)OCO4)CC2)cc1 [compound 47]
(2) COc1cc2c(cc1NC(=O)CN1CCN(C(=O)c3ccc(O)cc3)CC1)OCO2 [compound 380]
Query :: Parameter metric = IC50. Return the lower-valued option from 1 and 2 . Choose, then provide that item's label.
Result :: 1

---

target_or_system: hT2R54 (Homo sapiens, UniProt P59534)
Construct: expressed in transfected cells; it overexpresses a promiscuous G protein
Sequence (P59534 1-338): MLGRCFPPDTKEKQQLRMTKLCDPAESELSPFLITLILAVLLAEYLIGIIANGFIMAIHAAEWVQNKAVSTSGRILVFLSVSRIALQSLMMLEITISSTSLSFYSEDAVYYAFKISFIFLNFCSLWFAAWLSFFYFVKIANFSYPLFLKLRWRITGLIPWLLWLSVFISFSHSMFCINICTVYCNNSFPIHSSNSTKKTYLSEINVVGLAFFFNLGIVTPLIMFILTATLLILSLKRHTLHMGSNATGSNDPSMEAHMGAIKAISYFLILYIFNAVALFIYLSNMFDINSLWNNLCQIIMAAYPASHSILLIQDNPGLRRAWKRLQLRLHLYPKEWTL
assay_text: Cell-based assay for measuring hT2R54 inhibition (FLIPR calcium, Fluo4AM, acetaminophen as bitter agonist)
stated_conditions: Table 8; read-out: hT2R54 IC50
experimental_endpoint: IC50 (nM)

Take a look at these entries with their results.
molecule="CC(=O)c1cc2c(cc1NC(=O)CC1CCN(C(=O)Cc3ccccc3F)CC1)OCO2 [compound 248]" target_or_system="hT2R54 (Homo sapiens, UniProt P59534)" unit_annotation=nM meas_value=420
molecule="CC(=O)c1cc2c(cc1NC(=O)CC1CCCN(C(=O)c3ccco3)C1)OCO2 (centres unmarked) [compound 194]" target_or_system="hT2R54 (Homo sapiens, UniProt P59534)" unit_annotation=nM meas_value=6
molecule="CC(=O)c1cc2c(cc1NC(=O)CC1CCN(C(=O)[C@@H]3CCCO3)CC1)OCCO2 [compound 494]" target_or_system="hT2R54 (Homo sapiens, UniProt P59534)" unit_annotation=nM meas_value=300
molecule="CC(=O)c1cc2c(cc1NC(=O)CC1CCN(C(=O)c3cc(C)on3)CC1)OCO2 [compound 466]" target_or_system="hT2R54 (Homo sapiens, UniProt P59534)" unit_annotation=nM meas_value=700
molecule="CC(=O)c1cc2c(cc1NC(=O)CC1CCCN(C(=O)c3cccnc3)C1)OCO2 (centres unmarked) [compound 506]" target_or_system="hT2R54 (Homo sapiens, UniProt P59534)" unit_annotation=nM meas_value=113
molecule="COc1cc2c(cc1NC(=O)CC1CCCN(C(=O)c3ccccc3)C1)OCO2 (centres unmarked) [compound 513]" target_or_system="hT2R54 (Homo sapiens, UniProt P59534)" unit_annotation=nM meas_value=2700

(a) CC(=O)c1cc2c(cc1NC(=O)CC1CCN(C(=O)[C@H]3CCCO3)CC1)OCO2 [compound 471]
(b) CC(=O)c1cc2c(cc1NC(=O)CC1CCCN(S(C)(=O)=O)C1)OCO2 (centres unmarked) [compound 222]
Query :: Parameter check: reported IC50 is higher for which label, a or b ? The response must carry the label of the picked entry.
Result :: a
